target: human topoisomerase I (TOP1) (Homo sapiens, UniProt P11387)
Sequence (P11387 2-765): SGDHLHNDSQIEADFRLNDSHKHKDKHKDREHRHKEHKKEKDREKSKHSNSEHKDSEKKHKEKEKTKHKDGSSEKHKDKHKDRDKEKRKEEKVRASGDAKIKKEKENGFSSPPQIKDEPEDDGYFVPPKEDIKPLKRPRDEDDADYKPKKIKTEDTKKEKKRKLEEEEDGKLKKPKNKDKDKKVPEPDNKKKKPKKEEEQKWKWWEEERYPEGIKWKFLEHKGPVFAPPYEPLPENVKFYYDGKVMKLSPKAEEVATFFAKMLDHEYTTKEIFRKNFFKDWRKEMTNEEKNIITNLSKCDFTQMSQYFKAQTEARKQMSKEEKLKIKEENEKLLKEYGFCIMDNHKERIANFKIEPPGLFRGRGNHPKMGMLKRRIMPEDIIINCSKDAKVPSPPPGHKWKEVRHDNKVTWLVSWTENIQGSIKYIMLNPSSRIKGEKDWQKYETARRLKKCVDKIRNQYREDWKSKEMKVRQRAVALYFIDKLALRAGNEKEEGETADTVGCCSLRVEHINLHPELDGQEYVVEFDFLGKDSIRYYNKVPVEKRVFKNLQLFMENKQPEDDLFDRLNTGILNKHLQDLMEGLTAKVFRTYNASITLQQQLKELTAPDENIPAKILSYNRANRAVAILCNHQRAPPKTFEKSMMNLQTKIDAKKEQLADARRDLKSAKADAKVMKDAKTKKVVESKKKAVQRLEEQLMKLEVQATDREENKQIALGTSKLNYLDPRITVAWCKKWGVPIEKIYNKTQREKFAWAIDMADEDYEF
readoutKind: pIC50
Units for pIC50: none; it is -log10 of a concentration expressed in mol/L.

Query for human topoisomerase I (TOP1) (Homo sapiens, UniProt P11387): what pIC50 does the record show for "O=C(Nc1ccc(Sc2ccc(N=Nc3c(O)c(S(=O)(=O)O)cc4cc(S(=O)(=O)O)ccc34)cc2)cc1)c1ccc(N=Nc2c(O)c(S(=O)(=O)O)cc3cc(S(=O)(=O)O)ccc23)cc1" ?
6.05
